System: K4 kissing-loop RNA reporter
test_details: apparent KD of K4 kissing-loop reporter; higher = weaker reporter binding
condition_set: Eterna round: R107; input ligand: FMN 200 uM
For each entry below, report its apparent KD of K4 kissing-loop reporter value.
Numbers only, in nM.

The cases that follow already have their apparent KD of K4 kissing-loop reporter on record.
[
  {
    "ordered_residues": "GGUCGAGUGAUGUUCGAUGUAGUGCAUUCAGAGGAUAUAGGAUGGGCUAGAAGGCUGAAAGGUGCUUCGAGUGAUGUUCGAGGAU [Exclusion FMN A GF 3]",
    "apparent KD of K4 kissing-loop reporter, nM": 105
  },
  {
    "ordered_residues": "AAGCAGUCACUCGAAGCCAUCGAAGAUGGGCGAGGACCGGUACGGCCGCCACUCGGAGUGAUGUUCCGAGGACUGCAAAAUAAAA [MatMod 4 - Jieux - Exclusion - Tryptophan A]",
    "apparent KD of K4 kissing-loop reporter, nM": 507
  }
]

Response field apparent KD of K4 kissing-loop reporter (K4 kissing-loop RNA reporter) for item UGACUACAAGGAAAAUAAUCCUAGUGAUGUUAGGAUAUGCUGAUAAGCAGAAGGAACUGAGAUCGAAAGAUCUCAAAUGUAGUCU [FmnAX 27 Mat Inspired #SwitchBubble #StaticStem #K4Early] : 121

* * *

For each entry below, report its apparent KD of K4 kissing-loop reporter value.
Test system: K4 kissing-loop RNA reporter;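 further: bound reporter read as fluorescence of individual clusters on recovered sequencing chips by microscopy, with normalized cluster intensities fitted with a binding model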
test_details: apparent KD of K4 kissing-loop reporter; higher = weaker reporter binding
condition_set: Eterna round: R107; input ligand: none
One number for each entry, in nM.

[
  {
    "ordered_residues": "AAGCAGUCACUCGCAGCCAUCGAAGAUGGUCGAGGACCGGUACGGCCGCCACUCGGAGUGAUGUUCCGAAGACUGCAAAAUAAAA",
    "reading_unit": "nM",
    "apparent KD of K4 kissing-loop reporter": 282
  },
  {
    "ordered_residues": "CGCCGCAAGGCGGGCCGGCCCACUCCGGAAGGAGCGCCCGCAAGGGCAGGUAGGUCGCCGGAGUGAUGUUCCGGUGGCCGGCCCG [#2 Exclusion - Arginine A Attempt #3 (Inspired by Omei)]",
    "reading_unit": "nM",
    "apparent KD of K4 kissing-loop reporter": 376
  },
  {
    "ordered_residues": "UCUGGAGUAUAUGAUACCAGCAGUGAGAGACAGGAAGUAUAGUGAUGUUAUAUGAGAGAAUGCCCUUGGCAGCGUGUGCGGUGGC [SSTheophylB.Q]",
    "reading_unit": "nM",
    "apparent KD of K4 kissing-loop reporter": 61.6
  },
  {
    "ordered_residues": "AUUUGUUUAUGUGAUACCAGACUAAGCAGUGAUGUUGCUUUUAUUUUUGAAUUUUAAAUAGUCCCUUGGCAGCACUAUGUCUGUA [#05 K4 Theophylline B Same State]",
    "reading_unit": "nM",
    "apparent KD of K4 kissing-loop reporter": 135
  },
  {
    "ordered_residues": "AGACUACCACACUGUCAAUAGACAGUGAACUAGGAUAUGCUGAUAAGCAGAAGGAGUGAUGUUCCUUGGUAGUCAAUAAAAUAAU [FmnAX 13 U67]",
    "reading_unit": "nM",
    "apparent KD of K4 kissing-loop reporter": 298
  }
]

Can you give me apparent KD of K4 kissing-loop reporter for all of these, one by one?
1. AGUACAAUGGCGGCCGCCACUCAAUGGCAGAUCAAAGAUCUGCAUCACUCAGUGAUGUUGAGUGAGAGGACCGGGCCUUUGUACA [Omei KL Tryp B SS B v7]
2. UGUAUGUGAUUUGAUACCAGACCAGCUGGUGGUACCUGAGUGAUGUUCGGGAUGGUCUGGGUCCCUUGGCAGCAAAUCGCAUACU [KL-SSTheoB21]
3. UGUCAUUGGUCGGCCGCCACUAGGACCGGGUUUUGCCUAGUGAUGUUAGUAUGAACGGCCGCCACUAGGACCGGGACCGAUGACU [KL-SSTryp-B26 #DoubleAptamer]
4. UGUCAUUGGUCGGAUACCAGUUGAUGACGAAUACGUCAACUGGAGUGAUGUUCCUAAAACAACCCUUGGCAGCCGACCGAUGACU [MAT - Same State Theophlline B - Mod of Eli - D1]
5. GGGAGAAGAGCGGCCGCCACUCAGAAAGAAGAAGAAUAUAGUGAUGUUAUAUAGGAAAGGAAGAAGAGGACCGGGCUUAAGAGGG [#18 K4 Tryptophan B Same State]

Response:
563
254
473
852
149

Can you give me apparent KD of K4 kissing-loop reporter for all of these, one by one?
1. GGGAGCAAAGCUCCCGGAUGCUAUUACCAGUAGGAUAUCUGGAAACAGAGAAGGGCUAAGCCAGUGAUGUUGGUUUCGAGCAUCC
2. AACGUUUUGAGAAGGAGCGCGUUAAGCAGUGAUGUUGCUUUAUUAUAUUUACUACAUAUUUCGCAGGUAGGUCGCUCAAUACGUA [JR_Nu_SSArginiB_Sub025]
3. AAAUUUAUAUUAGAUACCAGUUUAUUGGAUGUAAAUUAUGACAUGAGUGAUGUUCAUGUAAGCCCUUGGCAGCUGGUAUGGGUUU [KL-XTheo-B22]

Response:
[754, 148, 127]

These measurements were taken from the supplement of paper PMC9170038.
